# Assay: qHTS for differential inhibitors of proliferation of Plasmodium falciparum line HB3 (AID 1886);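 also: parasites grown with compound for 72 h before SYBR Green readout; plate controls were vehicle for no effect and reference inhibitor for full effect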
# Test Context: Plasmodium falciparum HB3 proliferation inhibition; series mostly up to 28.7 µM
Records with an inconclusive call do not appear. Active and inactive are the calls of the source. Calls follow the shape of the dose curve; as a rule, active = well fitted curve in the direction sought with a large enough effect; inconclusive = small, poorly fitted or top-dose-only effect, or another doubt; inactive = no such curve, though single readings can be large or run the other way.
Parameter call: string, one of active, inactive

Name the outcome recorded for CC(N)Cc1c[nH]c2ccc(O)cc12 (centres undefined) in the assay.
inactive

Name the outcome recorded for CC(N)[C@H](O)c1ccc(O)c(O)c1 (some centres undefined) in the assay.
inactive

Name the outcome recorded for COc1ccc2c(c1OC)C(=O)OC2C1c2cc3c(cc2CCN1C)OCO3 (centres undefined) in the assay.
inactive

Name the outcome recorded for CN1CCc2cccc(Cl)c2CC1 in the assay.
inactive

Name the outcome recorded for CP(=O)(O)C1=CCNCC1 in the assay.
inactive

###

# Tested on: HB3
# Assay: qHTS profiling for inhibitors of Plasmodium falciparum proliferation (AID 504749); also: nearly all actives have a fitted effect of over 60% in size
# Test Context: P. falciparum in erythrocytes, SYBR Green DNA, 72 h; series mostly up to 28.7 µM
Records with an inconclusive call do not appear. The source made the active and inactive calls. The call rests on the fitted dose curve; in most records, active means well fitted inhibition curve with a large enough effect; inconclusive means small, poorly fitted or top-dose-only effect; inactive means flat fitted curve, though single readings scatter.
Parameter call: string, one of true (1) (active), false (0) (inactive)

Some solved cases for reference:
C[C@]12CCC(=O)C[C@@H]1CC[C@@H]1[C@@H]2CC[C@]2(C)[C@@H](O)CC[C@@H]12 :: false (0)
Oc1cccc[c]1[Hg][Cl] :: true (1)
ClCC1CO1 (stereo not given) :: false (0)
COCC(C)N(C(=O)CCl)c1c(C)csc1C (stereo not given) :: false (0)
O=C(OCCN1CCCCC1)C(O)(c1ccccc1)c1ccccc1 :: false (0)
CCCCNCC(O)c1ccc(O)cc1 (stereo not given) :: false (0)
C=CCN1CC[C@]23c4c5ccc(O)c4O[C@H]2[C@@H](O)C=C[C@H]3[C@H]1C5 :: false (0)
OC(c1ccccc1)(c1ccccc1)C1CN2CCC1CC2 (stereo not given) :: false (0)

Name the outcome recorded for O=C(O)C(Cl)(Cl)Cl in the assay.
false (0)

Name the outcome recorded for O=C(NCNC(=O)NC1C(=O)NC(=O)N1CO)NC1C(=O)NC(=O)N1CO (stereo not given) in the assay.
false (0)

Name the outcome recorded for CCON=O in the assay.
false (0)

Name the outcome recorded for C[CH2][Hg][S]c1ccccc1C(=O)O in the assay.
true (1)

Name the outcome recorded for CCC1(c2ccccc2)C(=O)NC(=O)N(C)C1=O (stereo not given) in the assay.
true (1)

Name the outcome recorded for CCC(=O)O[C@@](Cc1ccccc1)(c1ccccc1)[C@@H](C)CN(C)C in the assay.
false (0)

Name the outcome recorded for COC([CH2][Hg])CNC(=O)c1ccccc1OCC(=O)O (stereo not given) in the assay.
false (0)

Name the outcome recorded for CC(C)CCON=O in the assay.
false (0)

Name the outcome recorded for ClC1C(Cl)C(Cl)C(Cl)C(Cl)C1Cl (stereo not given) in the assay.
false (0)

Name the outcome recorded for N#CN in the assay.
false (0)

Name the outcome recorded for Clc1ccc(C2(Cn3cncn3)OCCO2)c(Cl)c1 in the assay.
false (0)

Name the outcome recorded for O[C@H]1[C@H]2[C@H](O)CCCN2C[C@H]1O in the assay.
false (0)

Name the outcome recorded for CCC1(c2ccccc2)C(=O)NC(=O)N(C(=O)c2ccccc2)C1=O (stereo not given) in the assay.
false (0)

Name the outcome recorded for Clc1ccc(Cl)cc1 in the assay.
false (0)

Name the outcome recorded for CC(=O)OO in the assay.
false (0)
